Ref: paper PMC6751662

Molecular target: Y1R (Homo sapiens)
Construct: expressed in transfected cells; host or cells: HEK293, transient
Sequence (P25929 whole entry): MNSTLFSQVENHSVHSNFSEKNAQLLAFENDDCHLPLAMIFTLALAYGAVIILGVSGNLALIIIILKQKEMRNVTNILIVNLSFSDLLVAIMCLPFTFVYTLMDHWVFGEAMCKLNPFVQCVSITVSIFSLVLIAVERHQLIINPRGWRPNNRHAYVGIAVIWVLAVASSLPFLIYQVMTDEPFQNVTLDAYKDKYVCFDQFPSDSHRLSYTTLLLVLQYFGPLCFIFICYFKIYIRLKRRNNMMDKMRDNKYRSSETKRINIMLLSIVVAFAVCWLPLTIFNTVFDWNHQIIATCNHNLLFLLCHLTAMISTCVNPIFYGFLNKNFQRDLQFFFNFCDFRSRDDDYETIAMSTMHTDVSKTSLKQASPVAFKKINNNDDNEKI
Assay: IP accumulation assay, chimeric GαΔ6qi4myr, Y1R
Format: cell-based
Settings: 10 µM peptide; chimeric GαΔ6qi4myr co-transfected; transiently transfected HEK293 cells; mean of at least three independent experiments
measured-property: IP accumulation, x-fold of basal (mean), Y1R

Sample answers from the record:
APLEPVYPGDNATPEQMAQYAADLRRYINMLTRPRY-NH2 [PP, human pancreatic polypeptide, reference compound]
25.89 x-fold of basal
AGSDPNFLRF-NH2 [FLP-1-2, C. elegans FMRFamide-like peptide, C-terminally amidated, synthesized by SPPS]
3.68 x-fold of basal
NPENDTPFGTMRF-NH2 [FLP-3-4, C. elegans FMRFamide-like peptide, C-terminally amidated, synthesized by SPPS]
3.82 x-fold of basal

Pending substance:
Prompt: In one line, give reported IP accumulation, x-fold of basal (mean), Y1R of the entry ASPSFIRF-NH2 [FLP-4-2, C. elegans FMRFamide-like peptide, C-terminally amidated, synthesized by SPPS] .
Response: 1.93 x-fold of basal

----------
Below, each entry is listed with its recorded pEC50.
Molecular target: NPR-4b (Caenorhabditis elegans, UniProt A0A078BTK0)
Sequence (A0A078BTK0 1-376): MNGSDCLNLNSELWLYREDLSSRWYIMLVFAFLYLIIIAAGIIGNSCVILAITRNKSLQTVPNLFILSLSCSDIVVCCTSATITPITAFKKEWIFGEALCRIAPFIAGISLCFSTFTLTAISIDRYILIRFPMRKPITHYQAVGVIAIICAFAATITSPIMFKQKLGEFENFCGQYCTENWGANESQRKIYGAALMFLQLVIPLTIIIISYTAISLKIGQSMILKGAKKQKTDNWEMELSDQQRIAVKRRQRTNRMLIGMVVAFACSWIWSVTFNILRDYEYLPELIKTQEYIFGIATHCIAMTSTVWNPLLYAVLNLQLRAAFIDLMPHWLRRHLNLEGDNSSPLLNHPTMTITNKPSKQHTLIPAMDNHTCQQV
Test: cAMP reporter gene assay, Gi/o (inhibition of forskolin-induced cAMP), NPR-4b
Format: cell-based, C. elegans
Ends that are not written are not given here.
Scale: negative log10 of molar concentration, which is what pEC50 denotes.

KHEYLRF-NH2 [FLP-14]
5.61

Prompt: Give recorded pEC50. GLGPRPLRF-NH2 [FLP-21]
Response: 6.45

----------
Biological target: NPFF1R (Homo sapiens, UniProt Q9GZQ6)
Construct: expressed in transfected cells; host or cells: HEK293, transient
Sequence (Q9GZQ6 whole entry): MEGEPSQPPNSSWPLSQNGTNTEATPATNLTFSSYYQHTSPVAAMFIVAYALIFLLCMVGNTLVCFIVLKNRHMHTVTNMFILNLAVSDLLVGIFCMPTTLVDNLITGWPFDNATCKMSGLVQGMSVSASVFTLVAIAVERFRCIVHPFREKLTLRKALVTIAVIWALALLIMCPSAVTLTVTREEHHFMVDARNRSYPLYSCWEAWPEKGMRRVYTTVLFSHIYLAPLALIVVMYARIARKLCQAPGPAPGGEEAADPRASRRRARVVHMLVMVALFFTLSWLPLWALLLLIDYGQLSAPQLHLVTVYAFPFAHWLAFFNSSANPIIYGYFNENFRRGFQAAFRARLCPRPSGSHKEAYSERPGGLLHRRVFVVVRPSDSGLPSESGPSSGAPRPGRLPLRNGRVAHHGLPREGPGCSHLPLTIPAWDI
Test: IP accumulation assay, chimeric GαΔ6qi4myr, NPFF1R
Format: cell-based
Settings: 0.1 µM peptide; chimeric GαΔ6qi4myr co-transfected; transiently transfected HEK293 cells; mean of at least three independent experiments
Listed next: entries and their corresponding IP accumulation, x-fold of basal (mean), NPFF1R.

A selection of reference data follows.
APKPKFIRF-NH2 [FLP-5-1, C. elegans FMRFamide-like peptide, C-terminally amidated, synthesized by SPPS]
1.48 x-fold of basal
ASPSFIRF-NH2 [FLP-4-2, C. elegans FMRFamide-like peptide, C-terminally amidated, synthesized by SPPS]
1.86 x-fold of basal
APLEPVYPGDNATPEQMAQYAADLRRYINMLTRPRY-NH2 [PP, human pancreatic polypeptide, reference compound]
0.75 x-fold of basal

Prompt: Answer with the recorded IP accumulation, x-fold of basal (mean), NPFF1R of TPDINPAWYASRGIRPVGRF-NH2 [PrRP20, human prolactin-releasing peptide, 20 residues, reference compound] only.
Response: 0.94 x-fold of basal

Prompt: Indicate the recorded IP accumulation, x-fold of basal (mean), NPFF1R value for this substance: AGSDPNFLRF-NH2 [FLP-1-2, C. elegans FMRFamide-like peptide, C-terminally amidated, synthesized by SPPS]
Response: 2.11 x-fold of basal

Prompt: Consider the substance NPENDTPFGTMRF-NH2 [FLP-3-4, C. elegans FMRFamide-like peptide, C-terminally amidated, synthesized by SPPS] . State its measured IP accumulation, x-fold of basal (mean), NPFF1R.
Response: 1.29 x-fold of basal

Prompt: Give IP accumulation, x-fold of basal (mean), NPFF1R for the following substance: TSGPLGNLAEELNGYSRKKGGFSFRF-NH2 [QRFP26, human pyroglutamylated RFamide peptide, 26 residues, reference compound]
Response: 1.04 x-fold of basal

----------
Target: Y2R (Homo sapiens)
Construct: expressed in transfected cells; host or cells: HEK293, transient
Sequence (P49146 whole entry): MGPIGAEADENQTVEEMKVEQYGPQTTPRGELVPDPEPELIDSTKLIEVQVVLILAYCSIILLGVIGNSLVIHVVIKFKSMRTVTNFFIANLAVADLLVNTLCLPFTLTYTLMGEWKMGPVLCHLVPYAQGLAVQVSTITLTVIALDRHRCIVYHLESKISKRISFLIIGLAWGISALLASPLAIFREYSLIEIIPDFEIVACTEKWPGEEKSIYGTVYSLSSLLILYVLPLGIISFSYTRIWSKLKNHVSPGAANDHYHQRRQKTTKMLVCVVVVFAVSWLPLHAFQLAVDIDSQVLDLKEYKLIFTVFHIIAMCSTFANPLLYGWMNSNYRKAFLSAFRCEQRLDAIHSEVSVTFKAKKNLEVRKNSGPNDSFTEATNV
Test: IP accumulation assay, chimeric GαΔ6qi4myr, Y2R
Format: cell-based
Conditions: 0.1 µM peptide; chimeric GαΔ6qi4myr co-transfected; transiently transfected HEK293 cells; mean of at least three independent experiments
IP accumulation, x-fold of basal (mean), Y2R listing for selected substances.

ASPSFIRF-NH2 [FLP-4-2, C. elegans FMRFamide-like peptide, C-terminally amidated, synthesized by SPPS]
0.76 x-fold of basal
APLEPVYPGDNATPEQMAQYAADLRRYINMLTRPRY-NH2 [PP, human pancreatic polypeptide, reference compound]
3.40 x-fold of basal
APKPKFIRF-NH2 [FLP-5-1, C. elegans FMRFamide-like peptide, C-terminally amidated, synthesized by SPPS]
0.88 x-fold of basal

Prompt: Tell me its IP accumulation, x-fold of basal (mean), Y2R given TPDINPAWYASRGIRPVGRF-NH2 [PrRP20, human prolactin-releasing peptide, 20 residues, reference compound] as the entry.
Response: 0.81 x-fold of basal

Prompt: Tell me its IP accumulation, x-fold of basal (mean), Y2R given AGSDPNFLRF-NH2 [FLP-1-2, C. elegans FMRFamide-like peptide, C-terminally amidated, synthesized by SPPS] as the entry.
Response: 2.81 x-fold of basal

Prompt: For the substance NPENDTPFGTMRF-NH2 [FLP-3-4, C. elegans FMRFamide-like peptide, C-terminally amidated, synthesized by SPPS] , give its reported IP accumulation, x-fold of basal (mean), Y2R.
Response: 1.01 x-fold of basal

Prompt: Kindly indicate its recorded IP accumulation, x-fold of basal (mean), Y2R. Item: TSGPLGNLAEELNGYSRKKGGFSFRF-NH2 [QRFP26, human pyroglutamylated RFamide peptide, 26 residues, reference compound]
Response: 1.30 x-fold of basal

----------
Biological target: NPR-1 (Caenorhabditis elegans, UniProt Q18534)
Sequence (Q18534 whole entry): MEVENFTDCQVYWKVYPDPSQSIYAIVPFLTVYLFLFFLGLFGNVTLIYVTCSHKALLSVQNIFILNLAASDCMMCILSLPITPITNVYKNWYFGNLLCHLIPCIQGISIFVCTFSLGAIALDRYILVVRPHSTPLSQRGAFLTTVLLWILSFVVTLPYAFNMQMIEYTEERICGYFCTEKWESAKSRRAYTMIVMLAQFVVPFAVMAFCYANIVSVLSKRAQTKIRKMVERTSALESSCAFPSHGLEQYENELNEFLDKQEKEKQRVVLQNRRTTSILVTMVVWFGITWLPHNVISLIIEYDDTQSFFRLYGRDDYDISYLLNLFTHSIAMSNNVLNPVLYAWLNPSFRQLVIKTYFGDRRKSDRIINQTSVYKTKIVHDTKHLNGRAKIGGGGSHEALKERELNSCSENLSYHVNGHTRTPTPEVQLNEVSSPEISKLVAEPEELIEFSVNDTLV
Experiment: IP accumulation assay, chimeric GαΔ6qi4myr, NPR-1
Assay type: cell-based, C. elegans
Set-up: expressed in transfected cells; host or cells: HEK293
Conditions: 10 µM peptide, 1 h, HBSS + 20 mM LiCl; HEK293 receptor + GαΔ6qi4myr; HTRF IP-One; mean of >=3 independent experiments (Tables S5 and S8)
// values below are reported IP accumulation with GαΔ6qi4myr, NPR-1

NPENDTPFGTMRF-NH2 [FLP-3-4, C. elegans FMRFamide-like peptide, C-terminally amidated, synthesized by SPPS]
0.94 x-fold of basal
ASPSFIRF-NH2 [FLP-4-2, C. elegans FMRFamide-like peptide, C-terminally amidated, synthesized by SPPS]
0.89 x-fold of basal
AGSDPNFLRF-NH2 [FLP-1-2, C. elegans FMRFamide-like peptide, C-terminally amidated, synthesized by SPPS]
0.98 x-fold of basal

Prompt: Kindly indicate its recorded IP accumulation with GαΔ6qi4myr, NPR-1. Item: APKPKFIRF-NH2 [FLP-5-1, C. elegans FMRFamide-like peptide, C-terminally amidated, synthesized by SPPS]
Response: 0.93 x-fold of basal

----------
Attribute: IP accumulation, x-fold of basal (mean), QRFPR#
Target: QRFPR (Homo sapiens)
Construct: expressed in transfected cells; host or cells: HEK293, transient
Sequence (Q96P65 whole entry): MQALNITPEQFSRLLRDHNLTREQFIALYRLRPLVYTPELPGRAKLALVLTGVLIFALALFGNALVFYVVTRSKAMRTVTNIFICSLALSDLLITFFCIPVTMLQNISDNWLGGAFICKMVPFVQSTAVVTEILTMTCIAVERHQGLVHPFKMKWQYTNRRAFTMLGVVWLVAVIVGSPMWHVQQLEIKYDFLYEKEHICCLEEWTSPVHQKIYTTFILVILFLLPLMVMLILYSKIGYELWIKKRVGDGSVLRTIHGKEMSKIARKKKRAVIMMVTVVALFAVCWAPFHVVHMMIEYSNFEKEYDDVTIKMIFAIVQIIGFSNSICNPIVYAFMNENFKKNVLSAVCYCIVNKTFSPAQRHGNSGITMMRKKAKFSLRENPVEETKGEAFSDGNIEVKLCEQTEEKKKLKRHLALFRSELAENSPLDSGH
Test: IP accumulation assay, endogenous Gαq coupling, QRFPR
Type: cell-based
Settings: 0.1 µM peptide, transiently transfected HEK293 cells, mean of at least three independent experiments
Procedure: For measuring IP accumulation, HEK293 cells grown to 70–80% confluency in 6-well plates were transiently co-transfected using Metafectene Pro (2.5 μl/μg DNA; Biontex) with plasmids containing receptor and/or mock (empty pcDNA3.1) (for endogenous Gq-coupling) using 4 μg total DNA in a ratio of 3:1 following the manufacturer’s instructions. […] IP accumulation was measured with the HTRF-based IP-One Gq kit (Cisbio) on a microplate reader (Tecan Spark). […]

Worked cases, IP accumulation, x-fold of basal (mean), QRFPR# given:
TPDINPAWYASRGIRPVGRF-NH2 [PrRP20, human prolactin-releasing peptide, 20 residues, reference compound]
0.59 x-fold of basal
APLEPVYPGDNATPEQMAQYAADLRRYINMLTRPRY-NH2 [PP, human pancreatic polypeptide, reference compound]
0.75 x-fold of basal
NPENDTPFGTMRF-NH2 [FLP-3-4, C. elegans FMRFamide-like peptide, C-terminally amidated, synthesized by SPPS]
1.42 x-fold of basal
APLEGFEDMSGFLRTIDGIQKPRF-NH2 [FLP-33, NPY-like C. elegans FLP with C-terminal RxRF/Ya signature]
0.91 x-fold of basal
AGSDPNFLRF-NH2 [FLP-1-2, C. elegans FMRFamide-like peptide, C-terminally amidated, synthesized by SPPS]
1.07 x-fold of basal

Prompt: Supply reported IP accumulation, x-fold of basal (mean), QRFPR# belonging to this substance: ASPSFIRF-NH2 [FLP-4-2, C. elegans FMRFamide-like peptide, C-terminally amidated, synthesized by SPPS]
Response: 1.26 x-fold of basal

----------
Entries annotated with measured IP accumulation, x-fold of basal (mean), Y2R
Target: Y2R (Homo sapiens)
Construct: expressed in transfected cells; host or cells: HEK293, transient
Test: IP accumulation assay, chimeric GαΔ6qi4myr, Y2R
Type: cell-based
Settings: 10 µM peptide; chimeric GαΔ6qi4myr co-transfected; transiently transfected HEK293 cells; mean of at least three independent experiments

ASPSFIRF-NH2 [FLP-4-2, C. elegans FMRFamide-like peptide, C-terminally amidated, synthesized by SPPS]
2.05 x-fold of basal
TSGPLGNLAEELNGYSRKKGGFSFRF-NH2 [QRFP26, human pyroglutamylated RFamide peptide, 26 residues, reference compound]
10.62 x-fold of basal
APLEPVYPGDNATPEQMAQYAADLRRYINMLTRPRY-NH2 [PP, human pancreatic polypeptide, reference compound]
12.24 x-fold of basal
NPENDTPFGTMRF-NH2 [FLP-3-4, C. elegans FMRFamide-like peptide, C-terminally amidated, synthesized by SPPS]
0.70 x-fold of basal
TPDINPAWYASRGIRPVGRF-NH2 [PrRP20, human prolactin-releasing peptide, 20 residues, reference compound]
5.05 x-fold of basal

Prompt: Return value of IP accumulation, x-fold of basal (mean), Y2R for input APKPKFIRF-NH2 [FLP-5-1, C. elegans FMRFamide-like peptide, C-terminally amidated, synthesized by SPPS] , no commentary.
Response: 4.08 x-fold of basal

Prompt: For the substance AGSDPNFLRF-NH2 [FLP-1-2, C. elegans FMRFamide-like peptide, C-terminally amidated, synthesized by SPPS] , give its reported IP accumulation, x-fold of basal (mean), Y2R.
Response: 1.41 x-fold of basal
